Let's look at some binders and their measured SPOT signal as a fraction of Bim BH3's signal on the same receptor and array.
Target: T1, Bfl-1, Q16548
T1 chain: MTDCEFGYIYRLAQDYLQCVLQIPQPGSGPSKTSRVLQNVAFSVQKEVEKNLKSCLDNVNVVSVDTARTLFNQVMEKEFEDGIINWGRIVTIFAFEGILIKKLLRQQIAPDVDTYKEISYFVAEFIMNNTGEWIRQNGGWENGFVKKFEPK
Assay: peptide SPOT array, c-Myc-tagged receptor at 1 uM or 100 nM, anti-c-Myc-Cy3

Ask: What does the record list as SPOT signal as a fraction of Bim BH3's signal on the same receptor and array for EQKLKQHVENLNQVAEKLEEKHSQIT [CCDC68] ?
Result: 0.01

Ask: What does the record list as SPOT signal as a fraction of Bim BH3's signal on the same receptor and array for APGEEDLCAADNVICDNVGKDWRRLA [FADD] ?
Result: 0.04

Ask: What does the record list as SPOT signal as a fraction of Bim BH3's signal on the same receptor and array for PRPLSILGNLLLLCSQDMLTSLTKLS [CYP2F1] ?
Result: 0.33

Ask: What does the record list as SPOT signal as a fraction of Bim BH3's signal on the same receptor and array for NGGLLEFHKSDQEIGDKNDHWFDIDP [DZIP3] ?
Result: 0.04

Every entry's value here was drawn from paper PMC4072508.
